These data points were gathered from patent US20110002843A1.

measurement-protocol: Single-dose pharmacokinetics, safety and tolerability of 10-minute intravenous infusion in healthy volunteers
Assay type: in vivo, human
experimental-conditions: human, plasma, 0.6 ug/kg; 0.6 μg/kg iv over 10 minutes; read-out: AUClast, mean (SD) (converted)
experimental-endpoint: AUC(0-t) (ng·h/mL)
Answers are plain numbers, in ng·h/mL.

Read the entry Nc1nc(N/N=C/C2CCCCC2)nc2c1ncn2[C@@H]1O[C@H](CO)[C@@H](O)[C@H]1O (stereo in doubt) [Binodenoson] and write its reported AUC(0-t).
0.208

###

measurement-protocol: Single-dose pharmacokinetics, safety and tolerability of 10-minute intravenous infusion in healthy volunteers
Format: in vivo, human
experimental-conditions: human, plasma, 8 ug/kg; 8 μg/kg iv over 10 minutes; read-out: T1/2, mean (SD)
experimental-endpoint: half-life (min)
One number for each entry, in min.

Please list half-life recorded for the molecule Nc1nc(N/N=C/C2CCCCC2)nc2c1ncn2[C@@H]1O[C@H](CO)[C@@H](O)[C@H]1O (stereo in doubt) [Binodenoson]
12.3

###

measurement-protocol: Single-dose pharmacokinetics, safety and tolerability of 10-minute intravenous infusion in healthy volunteers
Assay type: in vivo, human
experimental-conditions: human, plasma, 0.6 ug/kg; 0.6 μg/kg iv over 10 minutes; read-out: T1/2, mean (SD)
experimental-endpoint: half-life (min)
One number for each entry, in min.

State, in one line, measured half-life of Nc1nc(N/N=C/C2CCCCC2)nc2c1ncn2[C@@H]1O[C@H](CO)[C@@H](O)[C@H]1O (stereo in doubt)
11.7

###

target-entity: Adenosine Receptor A2B (Cavia porcellus, UniProt Z9IYO2O0X7)
Sequence (Z9IYO2O0X7 1-332): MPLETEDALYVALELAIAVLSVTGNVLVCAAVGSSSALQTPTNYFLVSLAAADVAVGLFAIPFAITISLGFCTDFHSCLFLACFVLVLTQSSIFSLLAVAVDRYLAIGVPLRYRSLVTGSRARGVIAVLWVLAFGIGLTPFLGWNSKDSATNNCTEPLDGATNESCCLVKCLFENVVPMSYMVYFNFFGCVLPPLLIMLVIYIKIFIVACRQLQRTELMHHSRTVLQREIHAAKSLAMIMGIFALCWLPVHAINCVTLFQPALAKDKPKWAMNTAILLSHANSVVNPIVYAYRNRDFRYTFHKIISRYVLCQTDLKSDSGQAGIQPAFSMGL
measurement-protocol: G.P. Aortic Ring (Relaxation) bioassay
experimental-endpoint: EC50 (µM)
Give bare numbers, in µM.

State its EC50 for this compound: Nc1nc(N/N=C/C2CCCCC2)nc2c1ncn2[C@@H]1O[C@H](CO)[C@@H](O)[C@H]1O (stereo in doubt) [Binodenoson]
44.7

###

target-entity: UniProt:P47745
Sequence (P47745 1-326): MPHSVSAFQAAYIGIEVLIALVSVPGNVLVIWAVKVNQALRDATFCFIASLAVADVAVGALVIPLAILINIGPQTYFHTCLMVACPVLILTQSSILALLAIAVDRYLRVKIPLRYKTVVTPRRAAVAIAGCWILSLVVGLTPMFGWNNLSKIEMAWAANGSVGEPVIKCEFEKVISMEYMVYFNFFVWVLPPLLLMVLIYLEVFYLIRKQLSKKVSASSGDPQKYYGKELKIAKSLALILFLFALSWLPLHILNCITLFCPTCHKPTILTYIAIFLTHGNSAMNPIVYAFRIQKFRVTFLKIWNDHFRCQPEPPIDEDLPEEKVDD
measurement-protocol: Langendorff guinea pig heart preparation, prolongation of stimulus-QRS interval (negative dromotropy)
experimental-endpoint: pEC50
Give bare numbers, as −log10 of the molar value.

Identify measured pEC50 associated with Nc1nc(N/N=C/C2CCCCC2)nc2c1ncn2[C@@H]1O[C@H](CO)[C@@H](O)[C@H]1O (stereo in doubt)
5.46

###

measurement-protocol: Single-dose pharmacokinetics, safety and tolerability of 10-minute intravenous infusion in healthy volunteers
Format: in vivo, human
experimental-conditions: human, plasma, 6 ug/kg; 6 μg/kg iv over 10 minutes; read-out: AUC0-∞, mean (SD) (converted)
experimental-endpoint: AUC(0-inf) (ng·h/mL)
One number for each entry, in ng·h/mL.

Complete the entry with AUC(0-inf) for Nc1nc(N/N=C/C2CCCCC2)nc2c1ncn2[C@@H]1O[C@H](CO)[C@@H](O)[C@H]1O (stereo in doubt)
2.32
